Attribute: pIC50
target: human lung tryptase; assay: β-Tryptase In-Vitro Enzyme Assay; conditions: human lung tryptase 1 nM, substrate H-D-HHT-Ala-Arg-pNa 500 μM, pH 7.4, room temperature
# reply with the number alone; pIC50 is -log10 of concentration in mol/L

Some solved entries appear below for comparison.
compound | quantity-name | recorded-number
NCc1ccc2c(c1)C1(CCN(C(=O)c3ccc(-c4cccc(C(F)(F)F)c4)cc3)CC1)CO2 [Cpd 15] | pIC50 | 5.26
NCc1ccc2c(c1)C1(CCN(C(=O)c3sc4cccc(Cl)c4c3Cl)CC1)CO2 [Cpd 175] | pIC50 | 7.24
CS(=O)(=O)c1cccc(C(=O)N2CCC3(CC2)COc2ccc(CN)cc23)c1 [Cpd 72] | pIC50 | 6.28
NCc1ccc2c(c1)C1(CCN(C(=O)C3CC(=O)c4ccccc43)CC1)CO2 (centres unmarked) [Cpd 287] | pIC50 | 5.37
NCc1ccc2c(c1)C1(CCN(C(=O)C(c3ccccc3)c3ccccc3)CC1)CO2 [Cpd 290] | pIC50 | 6.80
NCc1ccc2c(c1)C1(CCN(C(=O)c3ccc(-c4ccc(Cl)c(Cl)c4)o3)CC1)CO2 [Cpd 138] | pIC50 | 6.85
CC(C)(C)c1cc(C(=O)N2CCC3(CC2)COc2ccc(CN)cc23)cc(C(C)(C)C)c1 [Cpd 133] | pIC50 | 7.09
COc1cccc(/C=C/C(=O)N2CCC3(CC2)COc2ccc(CN)cc23)c1 [Cpd 184] | pIC50 | 6.68

Now take the following compound into account.
Challenge: Quick one: pIC50 for CCC(C)Sc1sc(C(=O)N2CCC3(CC2)COc2ccc(CN)cc23)c2c1C(=O)CC(C)(C)C2 (centres unmarked) [Cpd 231] ?
Response given: 7.04

* * *

target: human lung tryptase; assay: β-Tryptase In-Vitro Enzyme Assay; conditions: human lung tryptase 1 nM, substrate H-D-HHT-Ala-Arg-pNa 500 μM, pH 7.4, room temperature
quantity-name: IC50

Some solved entries appear below for comparison.
compound | quantity-name | result
Cc1nn(-c2ccc(C(=O)N3CCC4(CC3)COc3ccc(CN)cc34)o2)c(C)c1Br [Cpd 150] | IC50 | 180 nM
NCc1ccc2c(c1)C1(CCN(C(=O)c3cccc(Cl)c3)CC1)CO2 [Cpd 39] | IC50 | 3700 nM
NCc1ccc2c(c1)C1(CCN(C(=O)c3cncc(-c4ccccc4)c3)CC1)CO2 [Cpd 142] | IC50 | 650 nM
CCSc1sc(C(=O)N2CCC3(CC2)COc2ccc(CN)cc23)c2c1C(=O)CC(C)(C)C2 [Cpd 223] | IC50 | 21 nM
CC(C)(C)c1ccc(/C=C/C(=O)N2CCC3(CC2)COc2ccc(CN)cc23)cc1 [Cpd 268] | IC50 | 2900 nM
CSc1sc(C(=O)N2CCC3(CC2)COc2ccc(CN)cc23)c(Cl)c1S(=O)(=O)C(C)C [Cpd 157] | IC50 | 17 nM
Cc1ccc(C)c(C#Cc2ccc(C(=O)N3CCC4(CC3)COc3ccc(CN)cc34)o2)c1 [Cpd 172] | IC50 | 7.2 nM
NCc1ccc2c(c1)C1(CCN(C(=O)c3ccc(F)c(C(F)(F)F)c3)CC1)CO2 [Cpd 74] | IC50 | 160 nM
Cc1cc(C(=O)N2CCC3(CC2)COc2ccc(CN)cc23)sc1Br [Cpd 259] | IC50 | 55 nM
NCc1ccc2c(c1)C1(CCN(C(=O)c3sc4ccccc4c3Cl)CC1)CO2 [Cpd 166] | IC50 | 71 nM

Challenge: Quick one: IC50 for NCc1ccc2c(c1)C1(CCN(C(=O)c3cccc(I)c3)CC1)CO2 [Cpd 48] ?
Response given: 16 nM

Challenge: Quick one: IC50 for Cc1ccc(C(=O)N2CCC3(CC2)COc2ccc(CN)cc23)cc1C [Cpd 24] ?
Response given: 150 nM

Challenge: Quick one: IC50 for NCc1ccc2c(c1)C1(CCN(C(=O)c3ccc(COc4cccc(Cl)c4)o3)CC1)CO2 [Cpd 134] ?
Response given: 76 nM

Challenge: Quick one: IC50 for NCc1ccc2c(c1)C1(CCN(C(=O)/C=C/c3cccs3)CC1)CO2 [Cpd 254] ?
Response given: 370 nM

Challenge: Quick one: IC50 for NCc1ccc2c(c1)C1(CCN(C(=O)c3snnc3-c3ccccc3)CC1)CO2 [Cpd 217] ?
Response given: 650 nM

* * *

biological target: human lung tryptase; assay: β-Tryptase In-Vitro Enzyme Assay; settings: human lung tryptase 1 nM, substrate H-D-HHT-Ala-Arg-pNa 500 μM, pH 7.4, room temperature
quantity-name: IC50 (nM)
Form entry: value (nM) — number only.

Some solved entries appear below for comparison.
smiles-repr | quantity-name | output-unit | recorded-number
NCc1ccc2c(c1)C1(CCN(C(=O)c3ccc(Br)cc3)CC1)CO2 | IC50 | nM | 360
CCN1CC2(CCN(C(=O)c3ccc(C#Cc4ccccc4)o3)CC2)c2cc(CN)ccc21 | IC50 | nM | 280
CC(C)Sc1sc(C(=O)N2CCC3(CC2)COc2ccc(CN)cc23)c2c1C(=O)CC(C)(C)C2 | IC50 | nM | 47

Now take the following compound into account.
Challenge: Quick one: IC50 for NCc1ccc2c(c1)C1(CCN(C(=O)c3ccc(-c4cccc(C(F)(F)F)c4)o3)CC1)CO2 ?
Response given: 330

* * *

target: human lung tryptase; experiment: β-Tryptase In-Vitro Enzyme Assay; conditions: human lung tryptase 1 nM, substrate H-D-HHT-Ala-Arg-pNa 500 μM, pH 7.4, room temperature
Attribute: IC50
Form entry: value (nM) — number only.

Some solved entries appear below for comparison.
smiles-repr | quantity-name | recorded-number
NCc1ccc2c(c1)C1(CCN(C(=O)Cc3ccc(F)c(F)c3)CC1)CO2 | IC50 | 1300
NCc1ccc2c(c1)C1(CCN(C(=O)C=C3c4ccccc4-c4ccccc43)CC1)CO2 | IC50 | 380
CS(=O)(=O)CC(=O)N1CC2(CCN(C(=O)c3ccc(C#Cc4ccccc4)o3)CC2)c2cc(CN)ccc21 | IC50 | 65
NCc1ccc2c(c1)C1(CCN(C(=O)c3ccc(C#Cc4ccccc4Cl)o3)CC1)CO2 | IC50 | 5.2
NCc1ccc2c(c1)C1(CCN(C(=O)c3cc4cc(C(F)(F)F)ccc4s3)CC1)CO2 | IC50 | 4100
NCc1ccc2c(c1)C1(CCN(C(=O)c3cc4sccc4s3)CC1)CO2 | IC50 | 89

Challenge: GET /values?readout=IC50&system=human lung tryptase&item= NCc1ccc2c(c1)C1(CCN(C(=O)c3ccc(C#Cc4ccccc4)o3)CC1)CN2S(=O)(=O)O
Response given: 18

Challenge: GET /values?readout=IC50&system=human lung tryptase&item= CCOc1sc(C(=O)N2CCC3(CC2)COc2ccc(CN)cc23)c2c1C(=O)CCC2
Response given: 73

Challenge: GET /values?readout=IC50&system=human lung tryptase&item= NCc1ccc2c(c1)C1(CCN(C(=O)c3cccc(-c4ccc5c(c4)OCO5)c3)CC1)CO2
Response given: 140

Challenge: GET /values?readout=IC50&system=human lung tryptase&item= CSc1ccc(C(=O)N2CCC3(CC2)COc2ccc(CN)cc23)cc1
Response given: 220

Challenge: GET /values?readout=IC50&system=human lung tryptase&item= NCc1ccc2c(c1)C1(CCN(C(=O)Cc3ccc4c(c3)OCO4)CC1)CO2
Response given: 680

Challenge: GET /values?readout=IC50&system=human lung tryptase&item= CCn1cc(C(=O)N2CCC3(CC2)COc2ccc(CN)cc23)c2cccc(C)c21
Response given: 440

Challenge: GET /values?readout=IC50&system=human lung tryptase&item= NCc1ccc2c(c1)C1(CCN(C(=O)c3sc4ccc5ccccc5c4c3Cl)CC1)CO2
Response given: 210

Challenge: GET /values?readout=IC50&system=human lung tryptase&item= CN(C)c1cccc(C(=O)N2CCC3(CC2)COc2ccc(CN)cc23)c1
Response given: 190

Challenge: GET /values?readout=IC50&system=human lung tryptase&item= NCc1ccc2c(c1)C1(CCN(C(=O)C#Cc3ccc(O)cc3)CC1)CO2
Response given: 3200

Challenge: GET /values?readout=IC50&system=human lung tryptase&item= Cc1occc1C(=O)NCc1ccc(C(=O)N2CCC3(CC2)COc2ccc(CN)cc23)o1
Response given: 690

Challenge: GET /values?readout=IC50&system=human lung tryptase&item= NCc1ccc2c(c1)C1(CCN(C(=O)c3ccc(C#Cc4ccccc4)o3)CC1)CN2S(N)(=O)=O
Response given: 5.2

* * *

Biological target: human lung tryptase
Assay: β-Tryptase In-Vitro Enzyme Assay
Settings: human lung tryptase 1 nM, substrate H-D-HHT-Ala-Arg-pNa 500 μM, pH 7.4, room temperature
Protocol: The β-tryptase assay was conducted with human lung tryptase (Cortex Biochem #CP3033) in an aqueous buffer (10 mM Tris, 10 mM Hepes, 150 mM NaCl, 0.1% PEG 8000, pH 7.4) using the chromogenic substrate H-D-HHT-Ala-Arg-pNa. […] Percent inhibition was calculated by comparing the initial reaction velocity of samples without inhibitor to those with inhibitor. The initial reaction velocities were analyzed using Microsoft Excel.
quantity-name: pIC50
# reply with the number alone; pIC50 is -log10 of concentration in mol/L

Some solved entries appear below for comparison.
compound | pIC50
COC(=O)c1cccc(C(=O)N2CC3(CCN(C(=O)c4ccc(C#Cc5ccccc5)o4)CC3)c3cc(CN)ccc32)c1 [Cpd 328] | 6.54
COc1ccc2c(Cl)c(C(=O)N3CCC4(CC3)COc3ccc(CN)cc34)sc2c1 [Cpd 209] | 6.48
NCc1ccc2c(c1)C1(CCN(C(=O)Cc3ccc(Cl)c(Cl)c3)CC1)CO2 [Cpd 86] | 6.21
Cc1cccc(/C=C/C(=O)N2CCC3(CC2)COc2ccc(CN)cc23)c1 [Cpd 179] | 6.59
COc1ccc(-c2c(C(=O)N3CCC4(CC3)COc3ccc(CN)cc34)sc(SC)c2C#N)cc1 [Cpd 201] | 7.35

Challenge: Quick one: pIC50 for NCc1ccc2c(c1)C1(CCN(C(=O)/C=C/c3ccc(F)cc3)CC1)CO2 [Cpd 182] ?
Response given: 6.13

Challenge: Quick one: pIC50 for NCc1ccc2c(c1)C1(CCN(C(=O)Cc3ccc(Br)cc3)CC1)CO2 [Cpd 93] ?
Response given: 6.46

Challenge: Quick one: pIC50 for NCc1ccc2c(c1)C1(CCN(C(=O)c3ccc(F)cc3)CC1)CO2 [Cpd 43] ?
Response given: 6.60

Challenge: Quick one: pIC50 for NCc1ccc2c(c1)C1(CCN(C(=O)/C=C/c3cccnc3)CC1)CO2 [Cpd 253] ?
Response given: 5.62

Values compiled from patent US8158792B2.
